Every entry's value here was drawn from ChEMBL document CHEMBL3885861.

Species on record: Rattus norvegicus
method description: Open TG-GATES - Regimen: Daily Repeat
Type: toxicity, organism-based, Sprague-Dawley
Set-up: regimen Daily Repeat, gender Male, age 6 weeks
assay conditions: in vivo, po, 300 mg/kg, […], tissue Plasma, route gavage, dose level Middle, time 14 day
recorded metric: PL (mg/dL)
Numbers only; they are read as mg/dL.

The cases that follow already have their PL on record.
compound	PL, mg/dL
CCN1CCCC1CNC(=O)c1cc(S(N)(=O)=O)ccc1OC (centres undefined) [SULPIRIDE]	145.2
CC(C)(S)[C@@H](N)C(=O)O	160.2

Sample O=C(O)c1cccnc1 ; PL observed: 162.6

Per the record, O=C(N[C@H](CO)[C@H](O)c1ccc([N+](=O)[O-])cc1)C(Cl)Cl has PL of 137.6

----------
Species on record: Rattus norvegicus
method description: Open TG-GATES - Regimen: Daily Repeat
Type: toxicity, organism-based, Sprague-Dawley
Parameters: regimen Daily Repeat, gender Male, age 6 weeks
assay conditions: in vivo, po, 0 mg/kg, 72 h, tissue Kidney, route gavage, dose level Control, time 3 day
Listing of recorded KIDNEY_L by entry.
Give the number; g is assumed, so skip it.

compound	scale unit	assay value
Nc1nc(N)c2nc(-c3ccccc3)c(N)nc2n1	g	1.1
CCC(C)(C)C(=O)O[C@H]1C[C@@H](C)C=C2C=C[C@H](C)[C@H](CC[C@@H]3C[C@@H](O)CC(=O)O3)[C@H]21	g	1
O=C(N[C@H](CO)[C@H](O)c1ccc([N+](=O)[O-])cc1)C(Cl)Cl	g	1.1
CCN1CCCC1CNC(=O)c1cc(S(N)(=O)=O)ccc1OC (stereo not given) [SULPIRIDE]	g	1.1
C[C@]12CCC(=O)C=C1CC[C@@H]1[C@@H]2CC[C@@]2(C)[C@H]1CC[C@]2(C)O	g	1

compound CCSCC[C@H](N)C(=O)O , KIDNEY_L observed: 1.1

Lab note: CN1C(=O)OC(C)(C)C1=O gave KIDNEY_L of 1

KIDNEY_L reading for CC(=O)Oc1cc(C(C)C)c(OCCN(C)C)cc1C : 0.9

Sample CC(C)C(=O)Nc1ccc([N+](=O)[O-])c(C(F)(F)F)c1 [FLUTAMIDE] ; KIDNEY_L observed: 1

Please fill in: KIDNEY_L reported for CC(C)(S)[C@@H](N)C(=O)O = 0.9

----------
Species on record: Rattus norvegicus
method description: Open TG-GATES - Regimen: Daily Repeat
Format: toxicity, organism-based, Sprague-Dawley
Design: regimen Daily Repeat, gender Male, age 6 weeks
assay conditions: in vivo, po, 1000 mg/kg, 72 h, tissue Blood, route gavage, dose level High, time 3 day
recorded metric: Ht (%)
Write the value in % as a bare number.

compound	assay value
CCN1CCCC1CNC(=O)c1cc(S(N)(=O)=O)ccc1OC (centres undefined) [SULPIRIDE]	42.6
CC(C)(S)[C@@H](N)C(=O)O	40.3
O=C(O)c1cccnc1	40.1

The reported Ht of the compound O=C(N[C@H](CO)[C@H](O)c1ccc([N+](=O)[O-])cc1)C(Cl)Cl was 40.7

----------
Species on record: Rattus norvegicus
method description: Open TG-GATES - Regimen: Daily Repeat
Assay type: toxicity, organism-based, Sprague-Dawley
Design: regimen Daily Repeat, gender Male, age 6 weeks
assay conditions: in vivo, po, 100 mg/kg, […], tissue Blood, route gavage, dose level Low, time 7 day
Below, each entry is listed with its recorded Plat.
# do not omit the unit; it follows the number

compound	Plat
CC(C)(S)[C@@H](N)C(=O)O [PENICILLAMINE]	127.2 x10_4/uL
CCN1CCCC1CNC(=O)c1cc(S(N)(=O)=O)ccc1OC (centres undefined) [SULPIRIDE]	123.5 x10_4/uL
O=C(O)c1cccnc1 [NIACIN]	109.3 x10_4/uL

Form field Plat, entry O=C(N[C@H](CO)[C@H](O)c1ccc([N+](=O)[O-])cc1)C(Cl)Cl [CHLORAMPHENICOL] : 131.5 x10_4/uL

----------
Measured IP accompanies every entry in the list below.
Species on record: Rattus norvegicus
method description: Open TG-GATES - Regimen: Daily Repeat
Assay type: toxicity, organism-based, Sprague-Dawley
Design: regimen Daily Repeat, gender Male, age 6 weeks
assay conditions: in vivo, po, 300 mg/kg, […], tissue Plasma, route gavage, dose level Middle, time 28 day
Could you give me the number in mg/dL? Just the number is fine.

compound	IP [mg/dL]
O=C(N[C@H](CO)[C@H](O)c1ccc([N+](=O)[O-])cc1)C(Cl)Cl [CHLORAMPHENICOL]	6.5
O=C(O)c1cccnc1 [NIACIN]	6.3
CC(C)(S)[C@@H](N)C(=O)O [PENICILLAMINE]	6.2

Next item in the queue.
Quick note, IP for CCN1CCCC1CNC(=O)c1cc(S(N)(=O)=O)ccc1OC (centres undefined) [SULPIRIDE] landed at 6.5

----------
Organism: Rattus norvegicus
method description: Open TG-GATES - Regimen: Daily Repeat
Type: toxicity, organism-based, Sprague-Dawley
Parameters: regimen Daily Repeat, gender Male, age 6 weeks
assay conditions: in vivo, po, 0 mg/kg, […], tissue Plasma, route gavage, dose level Control, time 14 day
Could you mark each record Satisfied if its LDH falls strictly under 80 IU/L, and Not satisfied if it equals or exceeds it?

Completed entries (count: 4):
compound	qualitative label
Oc1ncnc2[nH]ncc12	Satisfied
O=C(N[C@H](CO)[C@H](O)c1ccc([N+](=O)[O-])cc1)C(Cl)Cl	Satisfied
CC(=N)S [THIOACETAMIDE]	Satisfied
C[C@]12CCC(=O)C=C1CC[C@@H]1[C@@H]2CC[C@@]2(C)[C@H]1CC[C@]2(C)O	Not satisfied

Query: Determine if CC(C)(S)[C@@H](N)C(=O)O shows LDH strictly lower than 80 IU/L.
Result: Not satisfied

Query: Dear colleague, could you confirm whether LDH of CC(=O)Oc1cc(C(C)C)c(OCCN(C)C)cc1C falls below 80 IU/L? Thanks.
Result: Not satisfied

----------
A collection of compounds and their measured Eos
Organism: Rattus norvegicus
method description: Open TG-GATES - Regimen: Daily Repeat
Format: toxicity, organism-based, Sprague-Dawley
Set-up: regimen Daily Repeat, gender Male, age 6 weeks
assay conditions: in vivo, po, 0 mg/kg, […], tissue Blood, route gavage, dose level Control, time 28 day
I only need the number, in %, no unit after it.

Answered examples (6):
compound	scale unit	Eos
CC(=O)Oc1cc(C(C)C)c(OCCN(C)C)cc1C	%	1
CC(=N)S [THIOACETAMIDE]	%	1
O=C(O)c1cccnc1	%	1.2
CN1C(=O)OC(C)(C)C1=O	%	1.2
CC(C)C(=O)Nc1ccc([N+](=O)[O-])c(C(F)(F)F)c1 [FLUTAMIDE]	%	0.8
CCSCC[C@H](N)C(=O)O	%	1

Now, please, on to the next compound.
Form: compound = CCN1CCCC1CNC(=O)c1cc(S(N)(=O)=O)ccc1OC (configuration not stated) [SULPIRIDE] ; Eos = 1.2

----------
Species: Rattus norvegicus
method description: Open TG-GATES - Regimen: Daily Repeat
Assay type: toxicity, organism-based, Sprague-Dawley
Parameters: regimen Daily Repeat, gender Male, age 6 weeks
assay conditions: in vivo, po, 1000 mg/kg, […], tissue Plasma, route gavage, dose level High, time 14 day
Items are presented alongside their recorded BUN.
Enter your answer as a number in mg/dL; do not include the unit.

Example compounds with recorded BUN:
compound	scale unit	BUN
O=C(O)c1cccnc1	mg/dL	17.2
O=C(N[C@H](CO)[C@H](O)c1ccc([N+](=O)[O-])cc1)C(Cl)Cl	mg/dL	17.8
CC(C)(S)[C@@H](N)C(=O)O	mg/dL	13

The compound listed as CCN1CCCC1CNC(=O)c1cc(S(N)(=O)=O)ccc1OC (centres undefined) [SULPIRIDE] has a reported BUN of 16.8

----------
Quick reference: MCH of the listed items.
Organism: Rattus norvegicus
method description: Open TG-GATES - Regimen: Single
Type: toxicity, organism-based, Sprague-Dawley
Design: regimen Single, gender Male, age 6 weeks
assay conditions: in vivo, po, 0 mg/kg, 3 h, tissue Blood, route gavage, dose level Control
Lab book: enter the figure in pg, no units written.

Below: 3 molecules and their reported MCH.
smiles representation	scale unit	MCH
C#C[C@]1(O)CC[C@H]2[C@@H]3CCc4cc(O)ccc4[C@H]3CC[C@@]21C	pg	21.8
CC(C)(S)[C@@H](N)C(=O)O	pg	21.6
CCC(C)(C)C(=O)O[C@H]1C[C@@H](C)C=C2C=C[C@H](C)[C@H](CC[C@@H]3C[C@@H](O)CC(=O)O3)[C@H]21	pg	21.5

Next, consider the following molecule.
Looking up CN1C(=O)OC(C)(C)C1=O , I found its MCH recorded as 21.8
